Sourced from ChEMBL document CHEMBL1909046

# PROTOCOL_NOTES: DRUGMATRIX: Phosphodiesterase PDE3 enzyme inhibition (substrate: [3H]cAMP + cAMP)
# Type: tissue-based, Homo sapiens
# EXPERIMENTAL_CONTEXT: platelet; Not Active = under 50% inhibition at 10 µM

{"columns": ["COMPOUND", "Ki"],
 "data": [
  ["O=C(N/N=C/c1ccc([N+](=O)[O-])o1)c1cc([N+](=O)[O-])cc([N+](=O)[O-])c1O", "Not Active"],
  ["Oc1cccc(O)c1O", "Not Active"],
  ["O=C1O[C@H]([C@@H](O)CO)C(O)=C1O", "Not Active"],
  ["C[n+]1ccccc1/C=N/O.[Cl-] [PRALIDOXIME CHLORIDE]", "Not Active"],
  ["Nc1ccn([C@@H]2O[C@H](CO)[C@@H](O)C2(F)F)c(=O)n1", "Not Active"],
  ["CC(=O)Oc1ccc(C(c2ccc(OC(C)=O)cc2)c2ccccn2)cc1", "Not Active"],
  ["COc1ccc(C(=O)N2CCCC2=O)cc1", "Not Active"],
  ["CCC(=O)O[C@]1(C(=O)CCl)[C@@H](C)C[C@H]2[C@@H]3CCC4=CC(=O)C=C[C@]4(C)[C@@]3(F)[C@@H](O)C[C@@]21C [CLOBETASOL PROPIONATE]", "Not Active"],
  ["COc1ccc2[nH]cc(CCNC(C)=O)c2c1", "Not Active"],
  ["CCCN(CCC)S(=O)(=O)c1ccc(C(=O)O)cc1", "Not Active"],
  ["NNc1nncc2ccccc12 [HYDRALAZINE]", "Not Active"],
  ["C[C@@H](CO)NC(=O)[C@@H]1C=C2c3cccc4[nH]cc(c34)C[C@H]2N(C)C1", "Not Active"],
  ["Cn1c(=O)c2nc[nH]c2n(C)c1=O.O", "Not Active"],
  ["CCN(CC)CCNC(=O)c1cc(S(C)(=O)=O)ccc1OC [TIAPRIDE]", "Not Active"],
  ["O=C(O)c1cccnc1Nc1cccc(C(F)(F)F)c1", "Not Active"],
  ["CS(=O)(=O)c1ccc([C@@H](O)[C@@H](CO)NC(=O)C(Cl)Cl)cc1", "Not Active"],
  ["CC(C)NCC(O)COc1cccc2[nH]ccc12 (stereo not drawn)", "Not Active"],
  ["O=C(Nc1ccc(Br)cc1)c1cc(Br)cc(Br)c1O", "Not Active"],
  ["CC(=O)O[C@H]1C(=O)[C@@]2(C)[C@H]([C@H](OC(=O)c3ccccc3)[C@]3(O)C[C@H](OC(=O)[C@H](O)[C@@H](NC(=O)c4ccccc4)c4ccccc4)C(C)=C1C3(C)C)[C@]1(OC(C)=O)CO[C@@H]1C[C@@H]2O", "Not Active"],
  ["CC(C)Oc1ccc2c(=O)c(-c3ccccc3)coc2c1", "Not Active"],
  ["COc1cc([C@@H]2c3cc4c(cc3[C@@H](O[C@@H]3O[C@@H]5CO[C@@H](C)O[C@H]5[C@H](O)[C@H]3O)[C@H]3COC(=O)[C@H]23)OCO4)cc(OC)c1O [ETOPOSIDE]", "Not Active"],
  ["Nc1ccc2c3c(cccc13)C(=O)NC2=O", "Not Active"],
  ["CCN1CCC[C@H]1CNC(=O)c1cc(S(N)(=O)=O)ccc1OC [LEVOSULPIRIDE]", "Not Active"],
  ["C[C@@H]1C[C@H]2[C@@H]3CCC4=CC(=O)C=C[C@]4(C)[C@@]3(F)[C@@H](O)C[C@]2(C)[C@H]1C(=O)CO", "Not Active"],
  ["NC(=O)N1C(=O)/C(=C(\\O)c2cccs2)c2cc(Cl)ccc21", "Not Active"],
  ["C[n+]1ccc(-c2cc[n+](C)cc2)cc1.[Cl-].[Cl-] [PARAQUAT DICHLORIDE]", "Not Active"],
  ["CC(C)Cc1ccc([C@@H](C)C(=O)O)cc1 [(R)-IBUPROPHEN]", "Not Active"],
  ["C[C@@H]1CC[C@@]2(OC1)O[C@H]1[C@@H](O)[C@H]3[C@@H]4CC[C@H]5C[C@@H](O[C@@H]6O[C@H](CO)[C@H](O[C@@H]7O[C@H](CO)C(O)[C@H](O[C@@H]8OC[C@@H](O)[C@H](O)[C@H]8O)[C@H]7O[C@@H]7O[C@H](CO)[C@H](O)[C@H](O[C@@H]8O[C@H](CO)[C@@H](O)[C@H](O)[C@H]8O)[C@H]7O)[C@H](O)[C@H]6O)[C@H](O)C[C@]5(C)[C@H]4CC[C@]3(C)[C@H]1[C@@H]2C (stereo partly drawn)", "Not Active"]
]}
